target of assay: Furin (Homo sapiens)
assay name: Inhibition of recombinant human furin using Phac-Arg-Val-Arg-Arg-AMC as substrate incubated for 30 mins and measured by microplate reader method
Peptide text beside a SMILES is read from it. * marks the point of attachment. NH(4-amidinobenzyl) = N=C(N)c1ccc(CN*)cc1; PhAc = O=C(Cc1ccccc1)*

>  <compound>
CC(C)(C)[C@H](NC(=O)[C@H](CCCONC(=N)N)NC(=O)Cc1ccc(CNC(=N)N)cc1)C(=O)N[C@@H](CCCONC(=N)N)C(=O)NCc1ccc(C(=N)N)cc1

>  <quantity unit>
pM

>  <Ki>
10.1

$$$$
>  <compound>
CC(C)(C)[C@H](NC(=O)CCCCNC(=N)N)C(=O)N[C@@H](CCCNC(=N)N)C(=O)NCc1ccc(C(=N)N)cc1

>  <quantity unit>
pM

>  <Ki>
1260

$$$$
>  <compound>
CC(C)(C)[C@H](NC(=O)[C@H](CCCNC(=N)N)NC(=O)Cc1ccc(CNC(=N)N)cc1)C(=O)N[C@@H](CCCONC(=N)N)C(=O)NCc1ccc(C(=N)N)cc1

>  <quantity unit>
pM

>  <Ki>
13.1

$$$$
>  <compound>
CC(C)[C@H](NC(=O)CCCCNC(=N)N)C(=O)N[C@@H](CCCNC(=N)N)C(=O)NCc1ccc(C(=N)N)cc1

>  <quantity unit>
pM

>  <Ki>
2500

$$$$
>  <compound>
CC(C)[C@H](NC(=O)[C@H](CCCNC(=N)N)NC(=O)[C@H](CCCNC(=N)N)NC(=O)[C@H](CCCNC(=N)N)NC(=O)Cc1ccccc1)C(=O)N[C@@H](CCCNC(=N)N)C(=O)NCc1ccc(C(=N)N)cc1 (PhAc-RRRVR-{NH(4-amidinobenzyl)})

>  <quantity unit>
pM

>  <Ki>
13.8

$$$$

----------
target of assay: Furin (Homo sapiens, UniProt P09958)
Sequence (P09958 whole entry): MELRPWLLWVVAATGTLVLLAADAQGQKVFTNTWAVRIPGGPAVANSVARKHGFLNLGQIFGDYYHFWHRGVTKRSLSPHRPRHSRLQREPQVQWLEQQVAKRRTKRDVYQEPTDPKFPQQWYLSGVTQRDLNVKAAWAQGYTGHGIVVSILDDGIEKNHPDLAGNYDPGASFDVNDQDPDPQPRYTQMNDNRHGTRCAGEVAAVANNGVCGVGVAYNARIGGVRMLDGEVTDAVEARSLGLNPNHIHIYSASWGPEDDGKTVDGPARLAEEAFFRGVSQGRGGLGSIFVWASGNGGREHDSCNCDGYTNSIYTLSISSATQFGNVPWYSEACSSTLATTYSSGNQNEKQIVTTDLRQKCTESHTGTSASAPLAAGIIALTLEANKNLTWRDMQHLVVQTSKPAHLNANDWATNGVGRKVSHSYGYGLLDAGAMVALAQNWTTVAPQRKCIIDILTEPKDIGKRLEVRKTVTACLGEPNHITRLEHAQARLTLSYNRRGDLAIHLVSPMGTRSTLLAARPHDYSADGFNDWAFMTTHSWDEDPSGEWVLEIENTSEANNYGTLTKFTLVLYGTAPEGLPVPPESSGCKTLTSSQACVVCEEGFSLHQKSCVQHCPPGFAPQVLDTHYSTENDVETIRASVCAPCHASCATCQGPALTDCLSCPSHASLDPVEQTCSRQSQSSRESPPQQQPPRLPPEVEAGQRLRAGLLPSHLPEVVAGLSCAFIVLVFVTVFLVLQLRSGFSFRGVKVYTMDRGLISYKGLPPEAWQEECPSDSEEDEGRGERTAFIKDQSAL
assay name: Inhibition of soluble recombinant human furin using pyroGlu-Arg-Thr-Lys-Arg-AMC as substrate and measured by fluorescence assay
pKi: −log10 of the molar value.
Parameter pKi: see the listing below.

>  <item smiles>
N=C(N)N/N=C/c1cccc(OCCCOc2cccc(/C=N/NC(=N)N)c2)c1

>  <pKi>
5.77

$$$$
>  <item smiles>
C/C(=N\NC(=N)N)c1ccc(OCCCOc2ccc(/C(C)=N/NC(=N)N)cc2)cc1

>  <pKi>
5.84

$$$$
>  <item smiles>
N=C(N)N/N=C/c1ccc(Oc2ccc(Oc3ccc(/C=N/NC(=N)N)cc3)cc2)cc1

>  <pKi>
6.13

$$$$
>  <item smiles>
C/C(=N\NC(=N)N)c1ccc(NC(=O)CCCCC(=O)Nc2ccc(/C(C)=N/NC(=N)N)cc2)cc1

>  <pKi>
5.92

$$$$
>  <item smiles>
N=C(N)N/N=C/c1ccc(N2CCN(c3ccc(/C=N/NC(=N)N)cc3)CC2)cc1

>  <pKi>
5.81

$$$$

----------
target of assay: Prothrombin (Bos taurus, UniProt P00735)

>  <item smiles>
CC(C)(C)[C@H](NC(=O)[C@H](CCCONC(=N)N)NC(=O)Cc1ccc(CNC(=N)N)cc1)C(=O)N[C@@H](CCCONC(=N)N)C(=O)NCc1ccc(C(=N)N)cc1

>  <Ki>
> 3 µM

$$$$

----------
target of assay: UniProtKB P09958
assay name: Inhibition of Tev-FLAG-His-tagged furin (108 to 574 residues) (unknown origin) using FAM-QRVRRAVGIDK-TAMRA as substrate and measured after 2 hrs
pIC50: −log10 of the molar value.

>  <compound>
CC(CC1CCN(Cc2cc(Oc3cnc(N4CCN(C)CC4)nc3)nc(-c3cc(Cl)cc(Cl)c3)c2)CC1)C(=O)O (stereo unspecified)

>  <pIC50>
9.10

$$$$

----------
assay name: Stability in mouse plasma assessed as half-life
Format: ADME, cell-free
Reported half-life values are given for each entry in this list.

>  <compound>
CC(=O)N[C@@H](CCCNC(=N)N)C(=O)NN(CCCNC(=N)N)CC(=O)N[C@@H](C)C(=O)N[C@@H](CCCNC(=N)N)C(=O)N[C@@H](CCCNC(=N)N)C(=O)N[C@@H](CCCNC(=N)N)C(=O)N[C@@H](CCCCN)C(=O)N[C@@H](CCCCN)C(=O)N[C@@H](CCCNC(=N)N)C(=O)N[C@H](C(N)=O)[C@@H](C)O

>  <quantity unit>
h

>  <half-life>
1.04

$$$$
>  <compound>
CC(=O)N[C@@H](CCCNC(=N)N)C(=O)N[C@@H](C)C(=O)N[C@@H](CCCNC(=N)N)C(=O)N[C@@H](CCCNC(=N)N)C(=O)N[C@@H](CCCNC(=N)N)C(=O)N[C@@H](CCCCN)C(=O)N[C@@H](CCCCN)C(=O)N[C@@H](CCCNC(=N)N)C(=O)N[C@H](C(N)=O)[C@@H](C)O

>  <quantity unit>
h

>  <half-life>
1.7

$$$$
>  <compound>
CC1C(=O)N[C@@H](CCCNC(=N)N)C(=O)N[C@@H](C)C(=O)N[C@@H](CCCNC(=N)N)C(=O)N[C@@H](CCCNC(=N)N)C(=O)N[C@@H](CCCNC(=N)N)C(=O)N[C@H](C(=O)N[C@@H](CCCCN)C(=O)N[C@@H](CCCNC(=N)N)C(=O)N[C@H](C(N)=O)[C@@H](C)O)CCCCNC(CCCNC(=N)N)c2cn1nn2 (stereo partly drawn)

>  <quantity unit>
h

>  <half-life>
0.7

$$$$

----------
target of assay: Furin (Homo sapiens, UniProt P09958)
assay name: Inhibition of furin (unknown origin)
pKi: −log10 of the molar value. Numbered stars: 1 amine (or outer) side, 2 acyl side, 3 side chain; on linkers, the order of the positions; unused ones are H or OH. Bridge positions count the residues as written; N and C are the ends. Square brackets hold non-standard residues; d marks the D form. Peptide text beside a SMILES is read from it. * marks the point of attachment. NH(4-amidinobenzyl) = N=C(N)c1ccc(CN*)cc1; 2Nal = N[C@@H](Cc1ccc2ccccc2c1)C(=O)O; Glutaryl = O=C(CCCC(=O)[*:2])[*:1]; Suc = O=C(CCC(=O)[*:2])[*:1]

>  <molecule>
N=C(N)NCCC[C@@H]1NC(=O)CCCC(=O)NCCCC[C@@H](C(=O)N[C@@H](CCCCN)C(=O)NCc2ccc(C(=N)N)cc2)NC(=O)[C@H](CCCNC(=N)N)NC1=O (RRKK-{NH(4-amidinobenzyl)}; linker N-3 via Glutaryl)

>  <pKi>
8.98

$$$$
>  <molecule>
CSc1oc(-c2ccc(Cl)cc2Cl)nc1[P+](c1ccccc1)(c1ccccc1)c1ccccc1

>  <pKi>
5.80

$$$$
>  <molecule>
N=C(N)NCCC[C@H](NC(=O)[C@@H]1CCCCNC(=O)CCC(=O)N[C@@H](Cc2ccccc2)C(=O)N[C@@H](Cc2ccc3ccccc3c2)C(=O)N[C@@H](CCCNC(=N)N)C(=O)N[C@@H](CCCNC(=N)N)C(=O)N[C@@H](CCCNC(=N)N)C(=O)N[C@@H](CCCNC(=N)N)C(=O)N1)C(=O)NCc1ccc(C(=N)N)cc1 (F[2Nal]RRRRKR-{NH(4-amidinobenzyl)}; linker N-7 via Suc)

>  <pKi>
10.27

$$$$
>  <molecule>
CC(C)(C)[C@H](NC(=O)[C@H](CCCNC(=N)N)NC(=O)Cc1ccc(CNC(=N)N)cc1)C(=O)N[C@@H](CCCNC(=N)N)C(=O)NCc1ccc(CN)cc1

>  <pKi>
8.60

$$$$
>  <molecule>
N=C(N)NCCC[C@@H]1NC(=O)CCCC(=O)NCCCC[C@@H](C(=O)N[C@@H](CCCNC(=N)N)C(=O)NCc2ccc(C(=N)N)cc2)NC(=O)[C@H](CCCNC(=N)N)NC1=O (RRKR-{NH(4-amidinobenzyl)}; linker N-3 via Glutaryl)

>  <pKi>
9.30

$$$$
>  <molecule>
CC(=O)N[C@@H](CCCNC(=N)N)C(=O)N[C@@H](C)C(=O)N[C@@H](CCCNC(=N)N)C(=O)N[C@@H](CCCNC(=N)N)C(=O)N[C@@H](CCCNC(=N)N)C(=O)N[C@@H](CCCCN)C(=O)N[C@@H](CCCCN)C(=O)NCc1ccc(C(=N)N)cc1 (Ac-RARRRKK-{NH(4-amidinobenzyl)})

>  <pKi>
8.42

$$$$
>  <molecule>
CC(C)(C)[C@@H]1NC(=O)[C@H](CCCNC(N)N)NC(=O)[C@H](CCCNC(=N)N)NC(=O)[C@@H](N)CCCCNC(=O)CCN2CCN(CCC(=O)NCCCC[C@@H](C(=O)NCc3ccc(C(=N)N)cc3)NC1=O)CC2

>  <pKi>
9.31

$$$$

----------
target of assay: Furin (Homo sapiens, UniProt P09958)
assay name: Inhibition of furin (unknown origin)
pKi: −log10 of the molar value. Peptide text beside a SMILES is read from it. * marks the point of attachment. X1 = C[C@@H](O)[C@H](NN(CCCNC(N)N)CN*)C(N)=O; NH(4-amidinobenzyl) = N=C(N)c1ccc(CN*)cc1
readout: pKi

>  <compound>
CC(C)(C)[C@H](NC(=O)[C@H](CCCNC(=N)N)NC(=O)Cc1ccc(CNC(=N)N)cc1)C(=O)N[C@@H](CCCNC(=N)N)C(=O)NCc1ccc(N)nc1

>  <readout>
pKi

>  <test value>
9.10

$$$$
>  <compound>
CC(=O)N[C@@H](CCCNC(=N)N)C(=O)N[C@@H](C)C(=O)N[C@@H](CCCNC(=N)N)C(=O)N[C@@H](CCCNC(=N)N)C(=O)N[C@@H](CCCNC(=N)N)C(=O)N[C@@H](CCCCN)C(=O)N[C@@H](CCCCN)C(=O)N[C@@H](CCCNC(=N)N)C(=O)N[C@H](C(N)=O)[C@@H](C)O

>  <readout>
pKi

>  <test value>
7.72

$$$$
>  <compound>
CC(=O)N[C@@H](CCCNC(=N)N)C(=O)N[C@@H](C)C(=O)N[C@@H](CCCNC(=N)N)C(=O)N[C@@H](CCCNC(=N)N)C(=O)N[C@@H](CCCNC(=N)N)C(=O)N[C@@H](CCCCN)C(=O)N[C@@H](CCCCN)C(=O)NCN(CCCNC(N)N)N[C@H](C(N)=O)[C@@H](C)O (Ac-RARRRKK-X1)

>  <readout>
pKi

>  <test value>
7.55

$$$$
>  <compound>
CC(C)[C@H](NC(=O)[C@H](CCCNC(=N)N)NC(=O)[C@@H](N)CCCNC(=N)N)C(=O)N[C@@H](CCCNC(=N)N)C(=O)NCc1ccc(C(=N)N)cc1 (H-RRVR-{NH(4-amidinobenzyl)})

>  <readout>
pKi

>  <test value>
9.96

$$$$

The reported measurements were obtained from ChEMBL document CHEMBL5150003.
